molecular target: P2X purinoceptor 4 (Homo sapiens, UniProt Q99571); assay: Inhibition of human P2X4 stably expressed in human HEK293 cells assessed as intracellular calcium flux incubated for 30 mins in presence of agonist Benzoylbenzoyl-ATP by Fluo8-AM dye based FLIPR assay
Sequence (Q99571 whole entry): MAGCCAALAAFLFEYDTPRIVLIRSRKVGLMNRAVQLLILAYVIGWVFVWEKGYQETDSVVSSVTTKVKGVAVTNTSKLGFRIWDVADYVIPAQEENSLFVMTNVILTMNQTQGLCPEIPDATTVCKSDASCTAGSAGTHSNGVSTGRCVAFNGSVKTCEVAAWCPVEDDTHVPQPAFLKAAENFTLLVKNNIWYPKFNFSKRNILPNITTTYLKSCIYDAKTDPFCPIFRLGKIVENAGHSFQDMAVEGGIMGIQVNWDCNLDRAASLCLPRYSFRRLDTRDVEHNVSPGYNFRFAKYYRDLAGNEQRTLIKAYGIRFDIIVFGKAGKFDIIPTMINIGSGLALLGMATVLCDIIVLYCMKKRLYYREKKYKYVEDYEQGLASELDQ
// reported IC50 for each item listed
// note: answer is a bare numeric in µM

Some solved cases for reference:
| Smiles Record | Assayed Target | IC50 / µM |
| --- | --- | --- |
| CC(=O)N(c1ccn2nccc2c1)c1cc(NC(=O)Cc2c(Cl)cccc2Cl)ccn1 | P2X purinoceptor 4 (Homo sapiens, UniProt Q99571) | 0.157 |
| CC(=O)N(c1ccc2ncoc2c1)c1cc(NC(=O)Cc2cccc(F)c2Cl)ccn1 | P2X purinoceptor 4 (Homo sapiens, UniProt Q99571) | 0.143 |
| CC(=O)N(c1ccc2ncsc2c1)c1cc(NC(=O)Cc2ccccc2Cl)ccn1 | P2X purinoceptor 4 (Homo sapiens, UniProt Q99571) | 0.142 |

Which IC50 is listed for CC(=O)N(c1cc(NC(=O)Cc2c(Cl)cccc2Cl)ccn1)c1ccncc1F ?
0.171

Try this compound too: CC(=O)N(c1ccc2ncoc2c1)c1cc(NC(=O)Cc2ccccc2Cl)ccn1
0.168

Try this compound too: CC(=O)N(c1ccc2ncoc2c1)c1cc(NC(=O)Cc2c(Cl)cccc2Cl)ccn1
0.141
